observation.type: melting point

The cases that follow already have their melting point on record.
| molecule | reported.measurement |
| --- | --- |
| Nc1cc(=O)n(C2CCCCC2)c2nc(N[C@H]3CC[C@H](C(=O)N4CCOCC4)CC3)ncc12 | 185 to 203 °C |
| CC(=O)N1CCC(Nc2ncc3c(N)cc(=O)n(C4CCCC4)c3n2)CC1 | 282 to 285 °C |
| Nc1cc(=O)n([C@@H]2CC[C@@H](O)C2)c2nc(NC3CCCCC3)ncc12 (racemic) | 169.5 to 170 °C |
| COC(=O)N[C@H]1CC[C@H](Nc2ncc3c(N)cc(=O)n(CCCO)c3n2)CC1 | 190 to 191 °C |
| Nc1cc(=O)n(Cc2ccccc2)c2nc(NC3CCOCC3)ncc12 | 245.6 to 246.8 °C |

Return reported melting point; argument: Cc1c(N)c2cnc(N[C@@H]3CCCC[C@H]3C)nc2n(C2CCC2)c1=O
209 to 210 °C

Would you mind telling me what melting point value was observed for Nc1cc(=O)n(C2CCCC2)c2nc(NC3CCCCC3)ncc12 ?
125 to 130 °C

# query: melting point of entry Nc1cc(=O)n(C2CCC2)c2nc(NC3CCCCC3)ncc12
120 to 121.5 °C

Data request, read-out melting point, for Cc1c(N)c2cnc(N[C@H]3CC[C@H](C(=O)N4CCC(O)CC4)CC3)nc2n([C@@H]2CCOC2)c1=O
173 to 174 °C

Item under review: CC(=O)N[C@H]1CC[C@H](Nc2ncc3c(N)c(C)c(=O)n(C4CCCC4)c3n2)CC1 . Reported melting point?
296.2 to 298.2 °C

What value of melting point has been recorded for this entry: CCn1c(=O)cc(N)c2cnc(NC3CCOCC3)nc21
235 to 238.2 °C

So what does the record say about melting point for N#Cc1c(N)c2cnc(N[C@H]3CC[C@H](C(=O)N4CCC(O)CC4)CC3)nc2n(C2CCC2)c1=O ?
> 300 °C
